Below is a list of entries, each paired with its recorded soluble fraction (log2) value.
assay: soluble fraction after stress (log2 fold change); higher = more stays soluble; pooled small domains, quantitative proteomics; settings: stress: 75 degC;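 note: 20 min heating vs room temperature control held 20 min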
The reply should be a number, written without any unit.

{"MACROMOLECULE_SEQUENCE": "HMQIKNVDYGTFLDMLDEKNVKEVEIEDEQIVFTDNADPTGYYTTGRMEDPDLVDRLHNSGATFSAI", "OBSERVED_RESULT": 0.134}
{"MACROMOLECULE_SEQUENCE": "HMNSLPFSNFMNEVEAGRVVEVKIQGNNISGVLANGKTFSTYSPNYPELVEKLSSNGVSIVATPQ", "OBSERVED_RESULT": 0.28}
{"MACROMOLECULE_SEQUENCE": "HMRLSESLLDDIPGIGAARKRALLQSFGSVRKLRHADAEEIAAKVPGIGLNFAEKIVEALRKK", "OBSERVED_RESULT": 0.391}
{"MACROMOLECULE_SEQUENCE": "HMHEIVDTVLQVKQSVEADPLIAPALKNKEIVFQLNAKGVFQFKNAVIQVASALGISKNTVYMHLRNNK", "OBSERVED_RESULT": -3.04}
{"MACROMOLECULE_SEQUENCE": "HMDEQVETLKNLISELPKEQLEVLVMRHYEDLSFKEISEKTGVSINTALGRMRYALINIRKLMKENN", "OBSERVED_RESULT": -0.145}
{"MACROMOLECULE_SEQUENCE": "HMISKWGELVDLAVQLDIIQKSGSWFSMGDERIGQGANSVKDYLIANPDIAEKVEAEVRENLWKLN", "OBSERVED_RESULT": -0.625}
{"MACROMOLECULE_SEQUENCE": "HMQLLDIGSAVRIIREPYFGRLGTVVELPPELMEIESGTHARVLKAKLDDGTVAVVPRANVEIIVE", "OBSERVED_RESULT": -0.785}

From here, focus on the item given below.
Return reported soluble fraction (log2). Input sequence: HMANAGKFDSDMGEKINFPGNRVSLTPSELEAARELAAIMGDRFFSQLIPTTSKVTVTEMLQSLK
0.745

* * *

Below is a list of entries, each paired with its recorded soluble fraction (log2) value.
experiment: soluble fraction after stress (log2 fold change); higher = more stays soluble; pooled small domains, quantitative proteomics; details: stress: 75 degC
The reply should be a number, written without any unit.

Examples with their reported soluble fraction (log2) follow.
{"MACROMOLECULE_SEQUENCE": "HMKTGNIVMVNLGWKGKYYSIKMFFPQVSKPSRKDVQDQIEKIYPGGKLYTFVVSNYEPGEPMLHA", "soluble fraction (log2)": -1.41}
{"MACROMOLECULE_SEQUENCE": "HMVPAMEVALEDARRAIEQVVSGERTSVQLSSQEAMIRKLQHQMAKDANLFSRSSGVEPQRRVTIYTN", "soluble fraction (log2)": 0.0142}
{"MACROMOLECULE_SEQUENCE": "HMDILPEGNYKVNYDVIDEVGNIVANKNDIVVTEKSIKPLNTILGIDLYEVIHSQTGKYFTINGDNLTN", "soluble fraction (log2)": -0.0277}

From here, focus on the item given below.
Return reported soluble fraction (log2). Input sequence: HMVEAIDQALIEKQIQAVLQENSAAVKKYQAGKTEVLAFLIGQSMRKIAKKVDANLVKNILLEQLKNK
0.228
